# Lookup of reported EC50 keyed by entry
- measuredTarget: α-7 nicotinic ACh receptor ion channel (Rattus norvegicus)
- Construct: expressed in transfected cells
- Sequence (Q05941 23-502): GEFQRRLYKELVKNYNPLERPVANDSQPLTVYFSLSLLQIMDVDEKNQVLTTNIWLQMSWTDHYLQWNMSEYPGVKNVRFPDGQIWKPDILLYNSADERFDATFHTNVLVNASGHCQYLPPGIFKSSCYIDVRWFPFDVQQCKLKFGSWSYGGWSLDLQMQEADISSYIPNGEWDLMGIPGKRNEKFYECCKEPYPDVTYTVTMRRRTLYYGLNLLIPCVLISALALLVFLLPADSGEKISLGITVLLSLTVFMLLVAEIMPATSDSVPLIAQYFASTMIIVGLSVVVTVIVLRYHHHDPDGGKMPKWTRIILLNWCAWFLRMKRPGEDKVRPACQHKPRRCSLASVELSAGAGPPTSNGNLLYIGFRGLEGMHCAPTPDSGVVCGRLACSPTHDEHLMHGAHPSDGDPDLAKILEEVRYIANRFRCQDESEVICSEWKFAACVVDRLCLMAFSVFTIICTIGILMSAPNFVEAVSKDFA
- measurementProtocol: Ca2+-sensitive fluorescence-based FLIPR assay of α7 nicotinic receptor channel function (agonist activity)
- Format: cell-based
- experimentalConditions: FLIPR α7-HI (EC50, nM), HEK 293 cells, Ca2+ flux; Table 1, activity class

Examples with answers:
c1ccc(COc2ccc3nc(NC4=NC5(CN4)CN4CCC5CC4)sc3n2)cc1 (stereo not shown) :: > 1e+06 nM
Clc1cccc2nc(NC3=NCC4(CN5CCC4CC5)N3)sc12 (stereo not shown) :: 100 to 1000 nM
c1ccc2oc(NC3=NCC4(CN5CCC4CC5)N3)nc2c1 (stereo not shown) :: < 100 nM
c1cnc2sc(NC3=NCC4(CN5CCC4CC5)N3)nc2n1 (stereo not shown) :: 100 to 1000 nM
Clc1ccc2nc(NC3=NCC4(CN5CCC4CC5)N3)sc2n1 (single isomer, unassigned) [Example 28a] :: < 100 nM

Turning to the following compound.
Data request: Lookup: EC50 / α-7 nicotinic ACh receptor ion channel (Rattus norvegicus) / Clc1cnc(NC2=NCC3(CN4CCC3CC4)N2)cn1 (stereo not shown)
Data returned: 100 to 1000 nM
